# target_system: full length recombinant Pim-3 (Homo sapiens (Human), UniProt Q86V86)
# assay_procedure: Pim enzyme assay (HTRF, phosphorylation of biotinylated-BAD (S112) peptide), Pim-3
# Format: biochemical
# assay_setup: read-out: Pim3 IC50
Parameter pIC50: see the listing below.
# log scale: pIC50 equals minus log10 of the concentration in mol/L

molecule: c1cc2[nH]cc(-c3cncc(C4CC4)n3)c2cc1-c1nnc(N2CCCC2)o1 [Example 37, 2,2,2-trifluoroacetate]
value_observed: 8.17
--
molecule: CN1CCN(c2cccc(-c3c[nH]c4ccc(-c5nnc(N)s5)cc34)n2)CC1
value_observed: 9.20

Looking up CC(C)Oc1cccc(-c2c[nH]c3ccc(-c4nnc(N5CC[C@H](N)C5)s4)cc23)n1 [Example 34, 2,2,2-trifluoroacetate] , I found its pIC50 recorded as 8.82
